Source: paper PMC9130146

tested.on: WT1 ZF2-4 p.His474Arg (Homo sapiens (cDNA from A549 cells), UniProt P19544-2 334-423, H384R)
Sequence (P19544 other isoform, or with tags, fused parts or gaps H384R | p.H474R p.H474R): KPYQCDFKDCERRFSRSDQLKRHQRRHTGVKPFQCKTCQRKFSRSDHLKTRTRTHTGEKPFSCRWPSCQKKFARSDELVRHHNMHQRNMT
procedure.text: MST; 50 mM Na2HPO4.12H2O, 150 mM NaCl, 0.005% Tween; pH not stated; room temperature; 80 nM DNA; protein from 1-4 mM (highest) downward
settings: protein: recombinant; tags: no tag stated; label: 5' Cyanine5; single strand
quantity.name: Kd (µM)
Numbers only, in µM.

// GTGGAGGCGGCGGGGGCGGCAGCAACAG (ssDNA) [EGR1 DNA motif, Cy5 oligo] : Kd value = 48.4
